Every entry's value here was drawn from PubChem BioAssay (NCI).

Tested on: LXFL 529 NSCLC
Assay: NCI tumour cell line growth inhibition, 48 h
propertyMeasured: TGI

Enquiry: Give TGI for the following compound: COc1ccc(C2C(N)=NCC2c2ccccn2)cc1 (centres undefined)
Return: > 100 µM

Enquiry: Give TGI for the following compound: CCC1(CC)C(=O)NC(=S)N=C1N
Return: > 100 µM

Enquiry: Give TGI for the following compound: O=c1cc(-c2ccccc2F)[nH]c2cc3c(cc12)OCO3
Return: 16.5 µM

Enquiry: Give TGI for the following compound: CC(C)(C)c1nc2c(o1)C(=Nc1ccc(F)cc1)c1ccccc1C2=O
Return: > 100 µM

Enquiry: Give TGI for the following compound: CC(=O)[CH-]C(C)=O.CC(=O)[CH-]C(C)=O.N=CC=N.[Sn+2]
Return: 2.6 µM

Enquiry: Give TGI for the following compound: NC(CCSCC(F)F)C(=O)O (centres undefined)
Return: > 100 µM

Enquiry: Give TGI for the following compound: N#CC(C#N)=Cc1cccc(Oc2ccccc2)c1
Return: 41 µM

Enquiry: Give TGI for the following compound: O=c1c2cc3c(=O)n(CCc4ccccc4CO)c(=O)c3cc2c(=O)n1CCc1ccccc1CO
Return: > 100 µM

Enquiry: Give TGI for the following compound: CC1(C)CCc2cc3c(cc2O1)OCCC3=O
Return: > 100 µM

Enquiry: Give TGI for the following compound: COc1ccc(C(=O)C(C(=O)CCC(=O)Nc2cccc(C(F)(F)F)c2)c2ccccc2)cc1 (centres undefined)
Return: > 100 µM

Enquiry: Give TGI for the following compound: C=C(COC(C)=O)CC(/C=C(\C)CCC=C(C)C)OC(C)=O (centres undefined)
Return: > 100 µM

Enquiry: Give TGI for the following compound: CC(=O)OCCOCBr
Return: > 100 µM

Enquiry: Give TGI for the following compound: CC1CCCC(C(=O)/C(=C/c2cccc(Cl)c2)C(=O)C(=O)O)C1 (centres undefined)
Return: 43 µM

Enquiry: Give TGI for the following compound: O=C1NC(=S)S/C1=C/c1ccco1
Return: > 100 µM

----------
Test system: SK-OV-3 ovarian
Test: NCI tumour cell line growth inhibition, 48 h
propertyMeasured: TGI

Enquiry: Give TGI for the following compound: COc1cc(/C=C2\CC3C4CC=C5CC(N6CCCC6)CC[C@]5(C)C4CC[C@]3(C)C2OC(C)=O)ccc1OCCN1CCCC1 (some centres not stated)
Return: 8.92 µM

Enquiry: Give TGI for the following compound: CCNC(=S)N/N=C/c1ccccn1
Return: > 100 µM

Enquiry: Give TGI for the following compound: CCOC(=O)/C(=C/c1ccco1)P(=O)(OCC)OCC
Return: > 100 µM

Enquiry: Give TGI for the following compound: CCOC(=O)Cc1nc(/C(C#N)=C/c2ccco2)[nH]c(=O)c1C#N
Return: > 100 µM

Enquiry: Give TGI for the following compound: CCN(CC)C(=S)SS(=O)(=O)c1ccc(C)cc1
Return: > 100 µM

Enquiry: Give TGI for the following compound: CC1(C)OC(CCO)CN1C(=O)OCc1ccccc1 (configuration not stated)
Return: > 100 µM

Enquiry: Give TGI for the following compound: CS(=O)(=O)Nc1ccc(-c2ccc3c(NC(=O)C4CC4)n[nH]c3c2)cc1
Return: > 25 µM

Enquiry: Give TGI for the following compound: CN(C)CCNC(=O)Nc1c(C#N)[n+]([O-])c2cc(Cl)c(Cl)cc2[n+]1[O-]
Return: 97.7 µM

Enquiry: Give TGI for the following compound: CC(=O)c1c(C)n([O-])c2cc(C)c(C)cc2[n+]1=O
Return: > 100 µM

Enquiry: Give TGI for the following compound: O=C1c2c(c3c4ccc(Br)cc4oc3c3[nH]c4ccccc4c23)C(=O)N1O
Return: > 100 µM

Enquiry: Give TGI for the following compound: Oc1c2c(c(O)c3ccccc13)=N[C@@H](c1ccccc1)[C@H](c1ccccc1)N=2
Return: > 100 µM

Enquiry: Give TGI for the following compound: CCN(CC(=O)O)CC(=O)O
Return: > 100 µM

Enquiry: Give TGI for the following compound: COC(=O)C1=C(C)N2[C@H](C(=O)O)CS[C@@]2(C)[C@H](C(=O)OC)[C@H]1c1cccc([N+](=O)[O-])c1
Return: > 100 µM

Enquiry: Give TGI for the following compound: NC(=S)N=Nc1c(O)cc(Nc2ccc(Cl)cc2Cl)c2ccccc12
Return: 61.5 µM

Enquiry: Give TGI for the following compound: Cc1ccc(C(=O)c2[nH]c(Nc3cc(C)ccn3)c(C(=S)Nc3ccccc3)c2N)cc1
Return: > 100 µM

Enquiry: Give TGI for the following compound: O=C1CCn2c([nH]c3cccc4cccc2c43)=N1
Return: > 100 µM

Enquiry: Give TGI for the following compound: Cc1ncc(NC(=O)c2ccc(CN3CCN(C)CC3)c(C(F)(F)F)c2)cc1Nc1nccc(-c2cccnc2)n1
Return: 34.2 µM

Enquiry: Give TGI for the following compound: COC1OC2COC(C)(C)OC2C2OC(C)(C)OC12 (configuration not stated)
Return: > 100 µM

Enquiry: Give TGI for the following compound: Cc1cc2c(cc1Cl)SC(NNc1cnc3ccccc3n1)=NS2(=O)=O
Return: > 100 µM

Enquiry: Give TGI for the following compound: c1ccc([P+](Cc2csnn2)(c2ccccc2)c2ccccc2)cc1
Return: > 100 µM

Enquiry: Give TGI for the following compound: Cc1cccc(NC(Nc2cccc(C)c2)=C(C(Cl)=C(Cl)Cl)[N+](=O)[O-])c1
Return: > 100 µM

Enquiry: Give TGI for the following compound: COCC(=O)OC1CCn2c1nc1c2C(=O)C(C)=C(NC(C)=O)C1=O (configuration not stated)
Return: 34.3 µM

----------
Tested on: SK-MEL-28 melanoma
Experiment: NCI tumour cell line growth inhibition, 48 h; in the data active = GI50 below about 0.43 µM; inactive = the rest
Outcomes you can answer with include only these: true for active, false for inactive

Enquiry: Record request — test call for Cc1c(C(=O)NN)nnn1-c1ccnc2c(C(F)(F)F)cccc12
Return: false

Enquiry: Record request — test call for COc1cc(-c2cn(C)c(=O)c(C)c2C)cc(OC)c1CN1CC[C@H](N2CCN(c3ccc(N[C@H]4CCC(=O)NC4=O)cc3F)CC2)C(F)(F)C1
Return: false

Enquiry: Record request — test call for COc1ccc(C2C(C#N)=C(N)OC3=C2CCCc2ccc(F)cc23)cc1OC (configuration not stated)
Return: false

Enquiry: Record request — test call for c1cc[c]([Sn]([S]c2cccc3cccnc23)([c]2ccccc2)[c]2ccccc2)cc1
Return: true

Enquiry: Record request — test call for Cc1ccc2/c(=C/c3ccc(N(C)C)cc3)c3cc(-c4ccccc4)[n+](C)n3c2c1
Return: true

Enquiry: Record request — test call for CN(C)c1nc(-c2cccs2)n2nc(-c3ccc(Cl)cc3)cc2n1
Return: false

Enquiry: Record request — test call for CNc1nc(NC2CCCC2)nc(Sc2ccc(OC)cc2)n1
Return: false

----------
Tested on: HOP-18 NSCLC
Assay: NCI tumour cell line growth inhibition, 48 h
Please go through the items and note down their TGI.

Enquiry: Give TGI for the following compound: NC1=NC(=O)C(CC(=O)Nc2ccc([N+](=O)[O-])cc2[N+](=O)[O-])S1 (stereo unspecified)
Return: > 100 µM

Enquiry: Give TGI for the following compound: O=c1cc(-c2ccccc2F)[nH]c2cc3c(cc12)OCO3
Return: 61.1 µM

Enquiry: Give TGI for the following compound: N#Cc1c(N)c(C(=O)O)nn(-c2cccc(C(F)(F)F)c2)c1=O
Return: > 100 µM

Enquiry: Give TGI for the following compound: CC(C)(C)C1(O)Cc2ccccc2C(=O)O1 (stereo unspecified)
Return: > 100 µM

Enquiry: Give TGI for the following compound: COc1cc(/C=C/C(=N\NC(=O)c2ccccc2)c2sc(Nc3ccc(Cl)c(Cl)c3)nc2C)ccc1O
Return: 79.3 µM

Enquiry: Give TGI for the following compound: COc1cc(/C=C\c2ccc(O)cc2)cc(OC)c1OC
Return: > 100 µM

Enquiry: Give TGI for the following compound: CC1(C)OC(=O)C=C([O-])O1.CC1(C)OC(=O)C=C([O-])O1.O=c1c(O)c(-c2ccc([O-])cc2[O-])oc2cc(O)cc(O)c12.[Ti+4]
Return: > 100 µM

Enquiry: Give TGI for the following compound: CCC1(CC)C(=O)NC(=S)N=C1N
Return: > 100 µM

Enquiry: Give TGI for the following compound: O=C(c1ccccc1)[C@H]1Nc2cnccc2C2c3ccccc3CC21 (stereo partly specified)
Return: 45.6 µM

Enquiry: Give TGI for the following compound: c1ccc([P+](Cc2csnn2)(c2ccccc2)c2ccccc2)cc1
Return: > 100 µM

Enquiry: Give TGI for the following compound: O=c1c2ccccc2c2c3c1cccc3c1cccc3c(=O)c4ccccc4c2c31
Return: > 100 µM

----------
Please go through the items and note down their GI50.
Tested on: COLO 205 colon
Assay: NCI tumour cell line growth inhibition, 48 h

Enquiry: Give GI50 for the following molecule: CS(=O)(=O)Nc1ccc(-c2ccc3c(NC(=O)C4CC4)n[nH]c3c2)cc1
Return: > 25 µM

Enquiry: Give GI50 for the following molecule: Cc1c(C(=O)NN)nnn1-c1ccnc2c(C(F)(F)F)cccc12
Return: > 100 µM

Enquiry: Give GI50 for the following molecule: CN(C)CCNC(=O)Nc1c(C#N)[n+]([O-])c2cc(Cl)c(Cl)cc2[n+]1[O-]
Return: 16.1 µM

Enquiry: Give GI50 for the following molecule: CCCS(=O)(=O)c1nc(NC2CC2)cc(-c2ccc3c(ccn3C3CC(C)(C)NC(C)(C)C3)c2)n1
Return: 1.84 µM

Enquiry: Give GI50 for the following molecule: C=CC(=O)Nc1cccc(Nc2nc(Nc3ccc(OCCOC)cc3)ncc2F)c1
Return: 2.39 µM
